Cited source for all entries: patent US9212182B2

Biological target: Nav 1.7 (Homo sapiens (Human), UniProt Q15858)
Sequence (Q15858 whole entry): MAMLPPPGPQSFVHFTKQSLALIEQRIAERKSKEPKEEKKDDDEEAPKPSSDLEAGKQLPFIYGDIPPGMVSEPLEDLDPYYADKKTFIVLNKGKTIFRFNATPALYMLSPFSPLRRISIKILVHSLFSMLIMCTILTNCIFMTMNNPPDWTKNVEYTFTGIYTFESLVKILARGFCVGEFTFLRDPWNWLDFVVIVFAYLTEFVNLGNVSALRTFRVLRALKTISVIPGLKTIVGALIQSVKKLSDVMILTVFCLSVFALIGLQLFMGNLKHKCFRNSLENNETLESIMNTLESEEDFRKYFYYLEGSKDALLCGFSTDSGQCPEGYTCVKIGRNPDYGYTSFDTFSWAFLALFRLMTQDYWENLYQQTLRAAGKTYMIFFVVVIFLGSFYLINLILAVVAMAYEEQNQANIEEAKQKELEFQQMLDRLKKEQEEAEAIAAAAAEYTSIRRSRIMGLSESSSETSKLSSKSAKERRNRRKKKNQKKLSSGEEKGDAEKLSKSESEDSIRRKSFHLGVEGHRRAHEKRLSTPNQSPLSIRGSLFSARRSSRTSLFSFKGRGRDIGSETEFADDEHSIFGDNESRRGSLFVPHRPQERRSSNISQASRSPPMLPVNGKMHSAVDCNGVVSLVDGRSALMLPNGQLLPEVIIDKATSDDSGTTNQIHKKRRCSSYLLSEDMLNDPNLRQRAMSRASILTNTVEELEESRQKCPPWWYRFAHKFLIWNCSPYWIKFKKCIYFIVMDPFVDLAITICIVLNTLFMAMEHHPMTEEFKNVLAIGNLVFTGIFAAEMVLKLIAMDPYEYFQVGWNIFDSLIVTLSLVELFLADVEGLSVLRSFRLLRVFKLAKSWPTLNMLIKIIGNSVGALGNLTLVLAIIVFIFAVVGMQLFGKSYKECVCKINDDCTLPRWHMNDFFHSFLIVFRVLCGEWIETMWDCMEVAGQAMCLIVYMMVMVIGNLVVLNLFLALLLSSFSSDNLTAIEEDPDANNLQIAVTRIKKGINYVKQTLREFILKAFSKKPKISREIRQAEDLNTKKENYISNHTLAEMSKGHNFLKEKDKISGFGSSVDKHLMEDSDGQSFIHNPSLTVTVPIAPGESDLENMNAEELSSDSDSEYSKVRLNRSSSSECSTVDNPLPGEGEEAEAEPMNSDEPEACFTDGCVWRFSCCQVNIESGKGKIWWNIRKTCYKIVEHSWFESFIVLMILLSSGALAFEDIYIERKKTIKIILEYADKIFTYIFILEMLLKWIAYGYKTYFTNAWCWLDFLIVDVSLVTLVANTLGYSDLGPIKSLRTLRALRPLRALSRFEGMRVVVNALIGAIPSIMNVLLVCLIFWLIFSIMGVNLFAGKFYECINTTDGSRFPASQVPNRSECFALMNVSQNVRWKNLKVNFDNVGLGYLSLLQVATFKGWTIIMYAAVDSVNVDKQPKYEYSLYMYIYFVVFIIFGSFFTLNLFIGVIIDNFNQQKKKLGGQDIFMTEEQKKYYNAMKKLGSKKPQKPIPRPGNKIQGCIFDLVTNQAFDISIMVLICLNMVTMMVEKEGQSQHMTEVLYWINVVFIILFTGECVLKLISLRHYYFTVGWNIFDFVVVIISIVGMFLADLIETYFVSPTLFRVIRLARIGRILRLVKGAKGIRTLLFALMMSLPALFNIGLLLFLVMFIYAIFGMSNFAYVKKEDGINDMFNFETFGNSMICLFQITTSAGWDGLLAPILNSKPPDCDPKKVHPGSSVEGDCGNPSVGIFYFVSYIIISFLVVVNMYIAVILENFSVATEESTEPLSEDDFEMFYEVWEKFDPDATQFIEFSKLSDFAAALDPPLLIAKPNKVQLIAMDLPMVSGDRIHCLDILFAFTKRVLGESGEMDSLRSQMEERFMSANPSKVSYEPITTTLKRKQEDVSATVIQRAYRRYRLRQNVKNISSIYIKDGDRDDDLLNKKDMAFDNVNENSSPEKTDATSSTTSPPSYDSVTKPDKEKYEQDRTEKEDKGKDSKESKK
Experiment: in-vitro Nav 1.7 PX (IC50)
Assay type: cell-based
Conditions: in-vitro Nav 1.7 PX data
Measurement Type: IC50 (nM)

| Compound | Study System | Experimental Result |
| --- | --- | --- |
| COc1cc(Cl)cc(-c2ccc(-n3c(=O)ccc4cc(S(=O)(=O)Nc5ncc(F)cn5)ccc43)c(OC)c2)c1 [Example 927] | Nav 1.7 (Homo sapiens (Human), UniProt Q15858) | 15 |
| COc1cc(-c2ccc(C(F)(F)F)cc2)c(F)cc1-n1c(=O)ccc2cc(S(=O)(=O)Nc3ncccn3)ccc21 [Example 797] | Nav 1.7 (Homo sapiens (Human), UniProt Q15858) | 43 |
| COc1cc(-c2cccc(C(F)(F)F)c2)ccc1-n1c(=O)ccc2cc(S(=O)(=O)Nc3ncc(F)cn3)ccc21 [Example 917] | Nav 1.7 (Homo sapiens (Human), UniProt Q15858) | 31 |
| COc1cc(-c2ccc(F)c(F)c2)ccc1-n1c(=O)ccc2cc(S(=O)(=O)Nc3ccon3)ccc21 [Example 1014] | Nav 1.7 (Homo sapiens (Human), UniProt Q15858) | 53 |
| COc1cc(-c2ccc(Cl)c(C#N)c2)c(F)cc1-n1c(=O)ccc2cc(S(=O)(=O)Nc3cc(C)ncn3)ccc21 [Example 898] | Nav 1.7 (Homo sapiens (Human), UniProt Q15858) | 44 |

P: COc1nc(OCC2CC2)c(Cl)cc1-n1c(=O)ccc2cc(S(=O)(=O)Nc3ccon3)ccc21 [638/819]
Q: COc1cc(-c2cccnc2C)c(F)cc1-n1c(=O)ccc2cc(S(=O)(=O)Nc3ccon3)ccc21 [Example 737]
(Q) // compare measured IC50 between P and Q ; output the lower one Lab log: write the label of the selected item as the result.
(A) P

A: COc1cc(-c2cc(C)cc(C)c2)c(F)cc1-n1c(=O)ccc2cc(S(=O)(=O)Nc3ccon3)ccc21 [Example 706]
B: COc1nc(-c2cccc(C#N)c2)c(Cl)cc1-n1c(=O)ccc2cc(S(=O)(=O)Nc3ccon3)ccc21 [Example 1090]
C: COc1ccc(-c2cc(F)cc(Cl)c2)cc1-n1c(=O)ccc2cc(S(=O)(=O)Nc3ncco3)ccc21 [Example 864]
(Q) Endpoint returns the given compounds ordered by ascending IC50. Arrange the labels as the request states and list them.
(A) A, C, B

1: COc1cc(-c2cccc(C(F)(F)F)c2)ccc1-n1c(=O)ccc2cc(S(=O)(=O)Nc3ccc(C)nn3)ccc21 [Example 1138]
2: COc1cc(-c2ccc(Cl)c(C#N)c2)c(F)cc1-n1c(=O)ccc2cc(S(=O)(=O)Nc3ncc(F)cn3)ccc21 [Example 893]
3: COc1nc(C2CC2)c(Cl)cc1-n1c(=O)ccc2cc(S(=O)(=O)Nc3ccon3)ccc21 [640/830]
(Q) Sort these compounds on IC50 so the largest reading comes first. Please reply with the labels ordered as requested. Many thanks.
(A) 1, 3, 2
(1: 146 nM, 3: 38 nM, 2: 13 nM)
